Recorded pIC50 for the following compounds
# Test system: OATP1B1-expressing HeLa cells
# condition-label: read-out: IC50 HeLa B1
pIC50: −log10 of the molar value. Numbered stars: 1 amine (or outer) side, 2 acyl side, 3 side chain; on linkers, the order of the positions; unused ones are H or OH. Bridge positions count the residues as written; N and C are the ends. Square brackets hold non-standard residues; d marks the D form. Peptide text beside a SMILES is read from it. Adda = CO[C@@H](Cc1ccccc1)[C@@H](C)/C=C(C)/C=C/[C@H](N[*:1])[C@H](C)C(=O)[*:2]; dAsp(3S-Me) = C[C@H](C(=O)[*:3])[C@@H](N[*:1])C(=O)[*:2]; d(γGlu) = O=C(O)[C@@H](CCC(=O)[*:2])N[*:1]; NMeDha = C=C(NC)C(=O)O
readout: pIC50

INSERT INTO measurements (compound, tgt, readout, result_number) VALUES
  ('C=C1C(=O)N[C@H](C)C(=O)N[C@@H](CCCNC(=N)N)C(=O)N[C@@H](C(=O)O)[C@H](C)C(=O)N[C@@H](Cc2ccc(O)cc2)C(=O)N[C@@H](/C=C/C(C)=C/[C@H](C)[C@H](Cc2ccccc2)OC)[C@H](C)C(=O)N[C@@H](C(=O)O)CCC(=O)N1C [compound 16, MC-RY] (Y[Adda][d(γGlu)][NMeDha][dA]R[dAsp(3S-Me)]-OH; lactam N-7)', 'OATP1B1-expressing HeLa cells', 'pIC50', 7.11),
  ('C=C1C(=O)N[C@H](C)C(=O)N[C@@H](Cc2ccc(O)cc2)C(=O)N[C@@H](C(=O)O)[C@H](C)C(=O)N[C@@H](Cc2ccc(O)cc2)C(=O)N[C@@H](/C=C/C(C)=C/[C@H](C)[C@H](Cc2ccccc2)OC)[C@H](C)C(=O)N[C@@H](C(=O)O)CCC(=O)N1C [compound 17, MC-YY] (Y[Adda][d(γGlu)][NMeDha][dA]Y[dAsp(3S-Me)]-OH; lactam N-7)', 'OATP1B1-expressing HeLa cells', 'pIC50', 8.82),
  ('C=C1C(=O)N[C@H](C)C(=O)N[C@@H](CC(C)C)C(=O)N[C@@H](C(=O)O)[C@H](C)C(=O)N[C@@H](Cc2ccc(O)cc2)C(=O)N[C@@H](/C=C/C(C)=C/[C@H](C)[C@H](Cc2ccccc2)OC)[C@H](C)C(=O)N[C@@H](C(=O)O)CCC(=O)N1C [compound 5, MC-LY] (Y[Adda][d(γGlu)][NMeDha][dA]L[dAsp(3S-Me)]-OH; lactam N-7)', 'OATP1B1-expressing HeLa cells', 'pIC50', 9.80),
  ('CC=C1C(=O)N[C@@H](C(=O)O)[C@H](C)C(=O)N[C@@H](CCCNC(=N)N)C(=O)N[C@@H](/C=C/C(C)=C/[C@H](C)[C@H](Cc2ccccc2)OC)[C@H](C)C(=O)N[C@@H](C(=O)O)CCC(=O)N1C', 'OATP1B1-expressing HeLa cells', 'pIC50', 8.08);
